Origin of measurements: ChEMBL document CHEMBL5303304

Test system: Fibroblast
protocol.details: Incucyte cell viability with human fibroblast; also: unitless GR value; below 1 slowed growth and below 0 cell loss
Format: toxicity, cell-based
test.settings: 24 h, 10 µM, compound concentration 10 uM, replicate number 1
property.name: Growth Rate
Give only the figure.

Documented Growth Rate of O=C1CCCN1CCNc1nc(Nc2ccc(Cl)c(Cl)c2)ncc1C(F)(F)F : 0.64

Documented Growth Rate of COc1cc(O)c(C(CC(=O)N2C[C@H](C)C[C@H](C)C2)c2ccc3c(c2)OCO3)c(OC)c1 (stereo partly drawn) : 0.74

Documented Growth Rate of Cc1nc(-c2ccc(C(F)(F)F)cc2)sc1C(=O)NCc1ccc(OC(C)(C)C(=O)O)cc1 : 0.83

Documented Growth Rate of O=c1ccc2c(OCCCCOc3ccccc3)c3ccoc3cc2o1 : 0.92

Documented Growth Rate of Cl.O=C(NCCN1CCC2(CC1)C(=O)NCN2c1cccc(F)c1)c1ccc2ccccc2c1 : -0.27

Documented Growth Rate of COc1c(C(=O)/C=C/c2ccccc2)c(O)c(OC)c2occc12 : 0.86

Documented Growth Rate of Cc1n[nH]c2ncc(C(=O)N3CCC[C@H]3c3ccc(Cl)cc3)cc12 : 0.73

Documented Growth Rate of CCn1c(CNC(=O)c2ncc(C)nc2N)[n+](CC)c2ccc(C(=O)N(C)CCN(C)C)cc21.Cl.Cl.[Cl-] : 0.9

Documented Growth Rate of CC[C@@H]1C(=O)N(C)c2cnc(Nc3ccc(C(=O)NC4CCN(C)CC4)cc3OC)nc2N1C1CCCC1 : 0.41

Documented Growth Rate of Cn1c(C2(NC(=O)c3ccc(NCC4CCCCC4)nc3)CCC2)nc2ccc(/C=C/C(=O)O)cc21 : 0.94

Documented Growth Rate of COCCNC1CCC(Nc2cc(-c3csc(NCC4(C#N)CCOCC4)n3)c(Cl)cn2)CC1 (stereo not drawn) : 0.14

Documented Growth Rate of CO[C@H](C)CN1CC[C@]2(C)c3cccc(O)c3C[C@H]1C2(C)C.Cl : 0.9

Documented Growth Rate of C=CC(=O)Nc1ccc2[nH]c(=O)n(C3CCN(Cc4ccc(-c5ccc6c(c5)NC(=O)CO6)cc4)CC3)c2c1 : 0.45

Documented Growth Rate of CN1[C@@H](CC(=O)c2ccccc2)CCC[C@H]1C[C@H](O)c1ccccc1.Cl [LOBELINE HYDROCHLORIDE] : 0.58

Documented Growth Rate of O=C(NCc1ccc(F)cc1)C1CCN(S(=O)(=O)c2cc(Cl)cc(Cl)c2)CC1 : 0.76

Documented Growth Rate of Cc1ccc(NC(=O)c2ccc3c(c2)OCCO3)cc1NC(=O)c1ccc2nc(OCCN3CCCC3)ccc2c1 : -0.09

Documented Growth Rate of COc1ccc(-c2c(-c3ccccc3)oc3ncnc(O[C@H](C)CCCCC(=O)O)c23)cc1 : 0.88

Documented Growth Rate of CC(C)(C#N)c1cc(Cn2cncn2)cc(C(C)(C)C#N)c1 : 0.63

Documented Growth Rate of Cn1cc(-c2ccc3occ(-c4cccc(-c5ccncc5)c4)c3n2)cn1 : 0.25

Documented Growth Rate of CO[C@H]1C[C@@H]2CC[C@@H](C)[C@@](O)(O2)C(=O)C(=O)N2CCCC[C@H]2C(=O)O[C@H]([C@H](C)C[C@@H]2CC[C@@H](O)[C@H](OC)C2)CC(=O)[C@H](C)/C=C(\C)[C@@H](O)[C@@H](OC)C(=O)[C@H](C)C[C@H](C)/C=C/C=C/C=C/1C : 0.35

Documented Growth Rate of Cc1ccccc1Oc1cc(-n2c(=O)cc(C(F)(F)F)[nH]c2=O)c2ccccc2c1Cl : 0.75

Documented Growth Rate of CCC(C(=O)Nc1ccc(-c2cc3ccccc3s2)c(C(N)=O)c1)c1nccs1 (stereo not drawn) : 0.96

Documented Growth Rate of CNC(=O)c1c(F)cccc1Nc1nc(Nc2cc3c(cc2OC)CCN3C(=O)CN(C)C)nc2[nH]ccc12 : -0.23
